Data provenance is ChEMBL document CHEMBL5724806.

- Experiment: The drug is tested on the gut metagenome community of T-03 with ENA study accession number: PRJEB31790 for biotransformation under microaerobic condition. The drug concentrations were measured over 7 timepoints collected between 0 and 12 hours of incubation by liquid-chromatography-coupled mass spectrometry (LC–MS)
- Format: ADME
- Design: dose 5 uM, timepoint 0, 0.75, 1.5, 3, 6, 9, 12 hours
- Reported Conditions: 5 µM

Compound	Bacterial Biotransformation
C[C@@H]1C[C@H]2[C@@H]3CCC4=CC(=O)C=C[C@]4(C)[C@@]3(F)[C@@H](O)C[C@]2(C)[C@@]1(O)C(=O)CO [DEXAMETHASONE]	Compound NOT metabolized
C[C@H]1C[C@H]2[C@@H]3CCC4=CC(=O)C=C[C@]4(C)[C@@]3(F)[C@@H](O)C[C@]2(C)[C@@]1(O)C(=O)CO [BETAMETHASONE]	Compound NOT metabolized

###

- Experiment: The drug is tested on the gut metagenome community of T-04 with ENA study accession number: PRJEB31790 for biotransformation under anaerobic condition. The drug concentrations were measured over 7 timepoints collected between 0 and 12 hours of incubation by liquid-chromatography-coupled mass spectrometry (LC–MS)
- Assay type: ADME
- Design: dose 5 uM, timepoint 0, 0.75, 1.5, 3, 6, 9, 12 hours
- Reported Conditions: 5 µM

Molecule	Bacterial Biotransformation
CO[C@H]1C[C@@H]2CC[C@@H](C)[C@@](O)(O2)C(=O)C(=O)N2CCCC[C@H]2C(=O)O[C@H]([C@H](C)C[C@@H]2CC[C@@H](OCCO)[C@H](OC)C2)CC(=O)[C@H](C)/C=C(\C)[C@@H](O)[C@@H](OC)C(=O)[C@H](C)C[C@H](C)/C=C/C=C/C=C/1C	Compound NOT metabolized
C[C@]12C=CC(=O)C=C1CC[C@@H]1[C@@H]2[C@@H](O)C[C@@]2(C)[C@H]1CC[C@]2(O)C(=O)CO	Compound NOT metabolized

###

- Experiment: The drug is tested on Parabacteroides distasonis strain: DSM20701 for biotransformation under anaerobic condition. The drug concentrations were measured over 6 timepoints collected between 0 and 12 hours of incubation by liquid-chromatography-coupled mass spectrometry (LC–MS)
- Type: ADME
- Parameters: dose 5 uM, timepoint 0, 1.5, 3, 6, 9, 12 hours
- Reported Conditions: 5 µM
Readout: Bacterial Biotransformation

Compound	Test Value
C[C@]12CCC(=O)C=C1CC[C@@H]1[C@@H]2[C@@H](O)C[C@@]2(C)[C@H]1CC[C@]2(O)C(=O)CO [HYDROCORTISONE]	Compound NOT metabolized
C=CC[C@@H]1/C=C(\C)C[C@H](C)C[C@H](OC)[C@H]2O[C@@](O)(C(=O)C(=O)N3CCCC[C@H]3C(=O)O[C@H](/C(C)=C/[C@@H]3CC[C@@H](O)[C@H](OC)C3)[C@H](C)[C@@H](O)CC1=O)[C@H](C)C[C@@H]2OC.O	Compound NOT metabolized
C[C@]12CCC(=O)C=C1CC[C@@H]1[C@@H]2C(=O)C[C@@]2(C)[C@H]1CC[C@]2(O)C(=O)CO	Compound NOT metabolized

###

- Experiment: The drug is tested on Collinsella aerofaciens strain: DSM3979 for biotransformation under anaerobic condition. The drug concentrations were measured over 6 timepoints collected between 0 and 12 hours of incubation by liquid-chromatography-coupled mass spectrometry (LC–MS)
- Format: ADME
- Parameters: dose 5 uM, timepoint 0, 1.5, 3, 6, 9, 12 hours
- Reported Conditions: 5 µM
Readout: Bacterial Biotransformation

Compound	Bacterial Biotransformation
C[C@@H](NCCCc1cccc(C(F)(F)F)c1)c1cccc2ccccc12	Compound NOT metabolized
CNC(=C[N+](=O)[O-])NCCSCc1ccc(CN(C)C)o1	Compound NOT metabolized
C=CC[C@@H]1/C=C(\C)C[C@H](C)C[C@H](OC)[C@H]2O[C@@](O)(C(=O)C(=O)N3CCCC[C@H]3C(=O)O[C@H](/C(C)=C/[C@@H]3CC[C@@H](O)[C@H](OC)C3)[C@H](C)[C@@H](O)CC1=O)[C@H](C)C[C@@H]2OC.O	Compound metabolized
COc1c(C)c2c(c(O)c1C/C=C(\C)CCC(=O)OCCN1CCOCC1)C(=O)OC2 [MYCOPHENOLATE MOFETIL]	Compound metabolized
Cn1cnc([N+](=O)[O-])c1Sc1ncnc2nc[nH]c12	Compound metabolized

Quote Bacterial Biotransformation reported for CN(Cc1cnc2nc(N)nc(N)c2n1)c1ccc(C(=O)N[C@@H](CCC(=O)O)C(=O)O)cc1 [METHOTREXATE] please.
Compound NOT metabolized

Check the records and state Bacterial Biotransformation for C[C@@H]1C[C@H]2[C@@H]3CCC4=CC(=O)C=C[C@]4(C)[C@@]3(F)[C@@H](O)C[C@]2(C)[C@@]1(O)C(=O)CO
Compound NOT metabolized

###

- Experiment: The drug is tested on the gut metagenome community of P-02 with ENA study accession number: PRJEB31790 for biotransformation under anaerobic condition. The drug concentrations were measured over 7 timepoints collected between 0 and 12 hours of incubation by liquid-chromatography-coupled mass spectrometry (LC–MS)
- Assay type: ADME
- Set-up: dose 5 uM, timepoint 0, 0.75, 1.5, 3, 6, 9, 12 hours
- Reported Conditions: 5 µM
Readout: Bacterial Biotransformation

Look over these answered cases.
Compound	Bacterial Biotransformation
NS(=O)(=O)c1cc(C(=O)O)c(NCc2ccco2)cc1Cl [FUROSEMIDE]	Compound NOT metabolized
C[C@]12C=CC(=O)C=C1CC[C@@H]1[C@@H]2[C@@H](O)C[C@@]2(C)[C@H]1CC[C@]2(O)C(=O)CO	Compound metabolized
CO[C@H]1C[C@@H]2CC[C@@H](C)[C@@](O)(O2)C(=O)C(=O)N2CCCC[C@H]2C(=O)O[C@H]([C@H](C)C[C@@H]2CC[C@@H](OCCO)[C@H](OC)C2)CC(=O)[C@H](C)/C=C(\C)[C@@H](O)[C@@H](OC)C(=O)[C@H](C)C[C@H](C)/C=C/C=C/C=C/1C	Compound NOT metabolized
CCOc1nc2cccc(C(=O)O)c2n1Cc1ccc(-c2ccccc2-c2nnn[nH]2)cc1	Compound NOT metabolized

Complete the entry with Bacterial Biotransformation for CCOC(=O)[C@H](CCc1ccccc1)N[C@@H](C)C(=O)N1[C@H](C(=O)O)C[C@@H]2CCC[C@@H]21
Compound NOT metabolized

Answer with the recorded Bacterial Biotransformation of CO[C@H]1C[C@@H]2CC[C@@H](C)[C@@](O)(O2)C(=O)C(=O)N2CCCC[C@H]2C(=O)O[C@H]([C@H](C)C[C@@H]2CC[C@@H](O)[C@H](OC)C2)CC(=O)[C@H](C)/C=C(\C)[C@@H](O)[C@@H](OC)C(=O)[C@H](C)C[C@H](C)/C=C/C=C/C=C/1C only.
Compound NOT metabolized

Dear colleague, please send me the reported Bacterial Biotransformation for CN(Cc1cnc2nc(N)nc(N)c2n1)c1ccc(C(=O)N[C@@H](CCC(=O)O)C(=O)O)cc1 [METHOTREXATE] when you can.
Compound metabolized

Identify the reported Bacterial Biotransformation for the following entry. C[C@H]1C[C@@H]2[C@H]([C@@H](O)C[C@@]3(C)[C@H]2CC[C@]3(O)C(=O)CO)[C@@]2(C)C=CC(=O)C=C12
Compound metabolized

Indicate the recorded Bacterial Biotransformation value for this compound: COc1ccc([C@@H]2Sc3ccccc3N(CCN(C)C)C(=O)[C@@H]2OC(C)=O)cc1
Compound metabolized

# return recorded Bacterial Biotransformation for entry COc1c(C)c2c(c(O)c1C/C=C(\C)CCC(=O)OCCN1CCOCC1)C(=O)OC2 [MYCOPHENOLATE MOFETIL]
Compound metabolized

Give me measured Bacterial Biotransformation, please, for this compound: C[C@]12CCC(=O)C=C1CC[C@@H]1[C@@H]2C(=O)C[C@@]2(C)[C@H]1CC[C@]2(O)C(=O)CO
Compound metabolized

Query Bacterial Biotransformation for COc1c(C)c2c(c(O)c1C/C=C(\C)CCC(=O)O)C(=O)OC2
Compound NOT metabolized

Look up and report measured Bacterial Biotransformation for this entry: CNC(=C[N+](=O)[O-])NCCSCc1ccc(CN(C)C)o1
Compound metabolized

###

- Experiment: The drug is tested on Lactobacillus reuteri strain: DSM20016 for biotransformation under anaerobic condition. The drug concentrations were measured over 6 timepoints collected between 0 and 12 hours of incubation by liquid-chromatography-coupled mass spectrometry (LC–MS)
- Type: ADME
- Design: dose 5 uM, timepoint 0, 1.5, 3, 6, 9, 12 hours
- Reported Conditions: limosilactobacillus reuteri, 5 µM
Readout: Bacterial Biotransformation

CNC(=C[N+](=O)[O-])NCCSCc1ccc(CN(C)C)o1 Compound NOT metabolized
C[C@@H]1C[C@H]2[C@@H]3CCC4=CC(=O)C=C[C@]4(C)[C@@]3(F)[C@@H](O)C[C@]2(C)[C@@]1(O)C(=O)CO Compound NOT metabolized
CCOc1nc2cccc(C(=O)O)c2n1Cc1ccc(-c2ccccc2-c2nnn[nH]2)cc1 Compound NOT metabolized
